molecular target: Serine/threonine-protein kinase Chk2 (Homo sapiens)
Sequence (O96017 whole entry): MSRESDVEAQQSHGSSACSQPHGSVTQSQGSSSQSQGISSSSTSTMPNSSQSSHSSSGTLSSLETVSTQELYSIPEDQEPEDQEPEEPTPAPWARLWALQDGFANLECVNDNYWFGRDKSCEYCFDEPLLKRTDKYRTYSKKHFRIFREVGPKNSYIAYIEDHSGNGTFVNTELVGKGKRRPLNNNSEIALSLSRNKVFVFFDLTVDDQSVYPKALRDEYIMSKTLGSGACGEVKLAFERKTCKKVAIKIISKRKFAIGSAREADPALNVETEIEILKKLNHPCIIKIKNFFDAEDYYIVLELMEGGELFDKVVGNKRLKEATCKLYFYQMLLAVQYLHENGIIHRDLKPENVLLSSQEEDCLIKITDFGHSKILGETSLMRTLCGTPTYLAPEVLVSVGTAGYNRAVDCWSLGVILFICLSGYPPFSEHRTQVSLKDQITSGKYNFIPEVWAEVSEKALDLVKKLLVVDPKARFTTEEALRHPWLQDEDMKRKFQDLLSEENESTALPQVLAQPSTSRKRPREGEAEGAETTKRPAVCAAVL
property: IC50
Please append the unit to your numeric answer.

### Prompt IC50 of CC(CN(C)C)Oc1ccc(Cl)cc1NC(=O)Nc1cnc(C#N)cn1 (stereo unspecified) on Serine/threonine-protein kinase Chk2 (Homo sapiens)?
### Response 2.8 µM

* * *

test: Inhibition of Protein kinase A (PKA)
pIC50: −log10 of the molar value.
The following compounds are shown together with reported pIC50 values.

# compound, pIC50
rows = [
    ("CC(CN(C)C)Oc1ccc(Cl)cc1NC(=O)Nc1cnc(C#N)cn1 (configuration not stated)", "< 4.30"),
]

### Prompt Which pIC50 value is on record for `CC1(COc2ccc(Cl)cc2NC(=O)Nc2cnc(C#N)cn2)COC1` ?
### Response < 4.30

* * *

biological target: Serine/threonine-protein kinase Chk1 (Homo sapiens, UniProt O14757)
Sequence (O14757 whole entry): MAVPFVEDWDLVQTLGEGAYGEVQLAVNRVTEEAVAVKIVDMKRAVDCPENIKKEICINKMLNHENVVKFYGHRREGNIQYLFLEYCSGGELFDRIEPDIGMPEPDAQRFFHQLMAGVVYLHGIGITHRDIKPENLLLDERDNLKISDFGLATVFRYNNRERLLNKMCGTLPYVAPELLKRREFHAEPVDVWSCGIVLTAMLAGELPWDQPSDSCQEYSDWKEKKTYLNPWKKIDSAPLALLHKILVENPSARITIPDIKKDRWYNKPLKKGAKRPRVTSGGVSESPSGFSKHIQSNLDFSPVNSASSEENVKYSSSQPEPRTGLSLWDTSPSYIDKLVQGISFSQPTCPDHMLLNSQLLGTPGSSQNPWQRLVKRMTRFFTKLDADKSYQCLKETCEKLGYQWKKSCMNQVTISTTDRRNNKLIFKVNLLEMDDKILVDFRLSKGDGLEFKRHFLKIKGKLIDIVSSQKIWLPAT
property: IC50 (nM)
All answers are understood in nM, so give the number only.

### Prompt Which IC50 value is on record for CC(CN(C)C)Oc1ccc(Cl)cc1NC(=O)Nc1cnc(C#N)cn1 (stereo unspecified) ?
### Response 8

* * *

target: Cyclin-dependent kinase 1 (Homo sapiens, UniProt P06493)
Sequence (P06493 whole entry): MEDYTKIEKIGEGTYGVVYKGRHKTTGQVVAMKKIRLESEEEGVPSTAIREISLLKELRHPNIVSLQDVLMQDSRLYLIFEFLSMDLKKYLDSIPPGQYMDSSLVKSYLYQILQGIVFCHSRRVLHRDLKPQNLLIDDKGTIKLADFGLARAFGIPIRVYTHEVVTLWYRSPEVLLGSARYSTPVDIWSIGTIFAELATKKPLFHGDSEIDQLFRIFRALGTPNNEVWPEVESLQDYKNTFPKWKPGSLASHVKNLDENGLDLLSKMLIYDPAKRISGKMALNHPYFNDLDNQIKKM
pIC50: −log10 of the molar value.
property: pIC50

### Prompt Which pIC50 value is on record for `CC1(COc2ccc(Cl)cc2NC(=O)Nc2cnc(C#N)cn2)COC1` ?
### Response < 4.30

* * *

Target: Serine/threonine-protein kinase Sgk1 (Homo sapiens, UniProt O00141)
Sequence (O00141 whole entry): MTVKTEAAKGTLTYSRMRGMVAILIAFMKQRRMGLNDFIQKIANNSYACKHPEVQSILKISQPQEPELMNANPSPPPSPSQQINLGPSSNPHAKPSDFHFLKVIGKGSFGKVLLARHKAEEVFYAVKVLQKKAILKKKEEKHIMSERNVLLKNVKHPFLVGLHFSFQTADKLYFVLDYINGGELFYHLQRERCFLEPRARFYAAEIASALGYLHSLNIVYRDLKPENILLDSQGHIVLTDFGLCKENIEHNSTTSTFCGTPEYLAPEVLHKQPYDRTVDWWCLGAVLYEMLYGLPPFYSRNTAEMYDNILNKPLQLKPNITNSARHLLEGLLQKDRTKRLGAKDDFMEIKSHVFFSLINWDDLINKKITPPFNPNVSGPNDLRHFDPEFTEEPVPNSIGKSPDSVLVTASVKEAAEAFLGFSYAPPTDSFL
Assay: Inhibition of Serum/glucocorticoid regulated kinase (SGK)
property: IC50

# compound, IC50
data = [
    ("CC1(COc2ccc(Cl)cc2NC(=O)Nc2cnc(C#N)cn2)COC1", "> 50 µM"),
]

Turning to the following compound.
### Prompt Which IC50 value is on record for CC(CN(C)C)Oc1ccc(Cl)cc1NC(=O)Nc1cnc(C#N)cn1 (configuration not stated) ?
### Response > 50 µM

* * *

target: RAC-alpha serine/threonine-protein kinase (Homo sapiens, UniProt P31749)
Sequence (P31749 whole entry): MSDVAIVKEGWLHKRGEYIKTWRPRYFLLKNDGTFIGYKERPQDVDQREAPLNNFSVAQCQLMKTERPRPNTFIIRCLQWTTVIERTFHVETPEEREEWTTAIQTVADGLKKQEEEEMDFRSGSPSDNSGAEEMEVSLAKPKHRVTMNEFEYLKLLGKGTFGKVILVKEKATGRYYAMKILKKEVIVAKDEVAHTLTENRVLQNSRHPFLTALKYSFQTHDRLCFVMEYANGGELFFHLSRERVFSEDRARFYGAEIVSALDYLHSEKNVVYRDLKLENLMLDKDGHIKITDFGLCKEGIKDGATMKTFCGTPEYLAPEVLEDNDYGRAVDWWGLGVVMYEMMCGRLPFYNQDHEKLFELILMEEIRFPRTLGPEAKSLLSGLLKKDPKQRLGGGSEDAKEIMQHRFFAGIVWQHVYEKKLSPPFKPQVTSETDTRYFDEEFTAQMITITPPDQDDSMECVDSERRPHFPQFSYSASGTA
pIC50: −log10 of the molar value.
property: pIC50

### Prompt pIC50 of CC(CN(C)C)Oc1ccc(Cl)cc1NC(=O)Nc1cnc(C#N)cn1 (stereo unspecified) on RAC-alpha serine/threonine-protein kinase (Homo sapiens, UniProt P31749)?
### Response < 4.30
